These data points were gathered from patent US6066642A.

// reported Ki for each item listed
# experimentalTarget: human A3 receptors (Homo sapiens)
# Construct: expressed in transfected cells; host or cells: HEK-293 cells (membranes)
# Sequence (P0DMS8 whole entry): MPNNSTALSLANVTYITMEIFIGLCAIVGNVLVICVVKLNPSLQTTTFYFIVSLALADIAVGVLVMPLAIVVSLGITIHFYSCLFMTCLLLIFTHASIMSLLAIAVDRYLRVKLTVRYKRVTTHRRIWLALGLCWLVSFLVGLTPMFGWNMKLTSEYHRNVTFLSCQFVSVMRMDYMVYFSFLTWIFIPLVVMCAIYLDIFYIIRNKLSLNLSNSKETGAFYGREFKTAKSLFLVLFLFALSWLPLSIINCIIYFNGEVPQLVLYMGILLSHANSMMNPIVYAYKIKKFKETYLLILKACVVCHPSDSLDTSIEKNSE
# assayComment: radioligand binding, displacement of specific [125I]AB-MECA binding at human A3 receptors expressed in HEK-293 cells
# condition: Table 11; [125I]AB-MECA, HEK membranes; read-out: Ki hA3
outcomeMeasure: Ki

>>> recordedmeasurement("CCOC(=O)C1=C(C)NC(c2ccccc2)=C(C(=O)OCc2ccccc2)C1C#Cc1ccc(N)c(I)c1 (stereo not drawn)")
"< 0.1 µM"
>>> recordedmeasurement("CCOC(=O)C1=C(C)NC(c2ccccc2)=C(C(=O)OCc2ccccc2)C1C#Cc1ccc([N+](=O)[O-])cc1 (stereo not drawn)")
"< 0.1 µM"
>>> recordedmeasurement("CCOC(=O)C1=C(C)NC(c2ccccc2)=C(C(=O)OCc2ccccc2)C1C#Cc1ccc(N)cc1 (stereo not drawn)")
"< 0.1 µM"

###

# experimentalTarget: A2a receptors (Rattus norvegicus, UniProt P30543)
# Construct: Displacement of specific [^3 H]; from tissue; host or cells: rat striatal membranes
# Sequence (P30543 whole entry): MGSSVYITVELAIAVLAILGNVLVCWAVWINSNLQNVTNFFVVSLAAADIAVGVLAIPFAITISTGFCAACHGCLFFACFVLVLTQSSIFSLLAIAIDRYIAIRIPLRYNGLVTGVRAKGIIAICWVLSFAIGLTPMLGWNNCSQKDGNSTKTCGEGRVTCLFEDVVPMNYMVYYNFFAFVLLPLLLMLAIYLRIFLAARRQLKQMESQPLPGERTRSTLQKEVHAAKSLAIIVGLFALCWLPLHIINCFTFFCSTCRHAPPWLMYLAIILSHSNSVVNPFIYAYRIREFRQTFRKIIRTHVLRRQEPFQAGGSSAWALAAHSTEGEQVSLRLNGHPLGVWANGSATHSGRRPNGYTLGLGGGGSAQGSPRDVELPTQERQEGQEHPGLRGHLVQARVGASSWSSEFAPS
# assayComment: radioligand binding, displacement of specific [3H]CGS 21680 binding in rat striatal membranes
# condition: read-out: Ki rA2A
outcomeMeasure: Ki

>>> recordedmeasurement("O=C(CCc1ccccc1)Nc1nc2ccc(Cl)cc2c2nc(-c3ccco3)nn12")
"28.3 nM"

###

# experimentalTarget: A2a receptors (Rattus norvegicus, UniProt P30543)
# Construct: Displacement of specific [^3 H]; from tissue; host or cells: rat striatal membranes
# assayComment: radioligand binding, displacement of specific [3H]CGS 21680 binding in rat striatal membranes
# condition: Table 4; [3H]CGS 21680, rat striatal membranes; read-out: Ki rA2a
pKi: −log10 of the molar value.
outcomeMeasure: pKi

>>> recordedmeasurement("O=C1CC(c2ccccc2O)Oc2ccccc21 (stereo not shown) [Compound 13, reference compound]")
4.75

###

Reported pKi is given for each of the following compounds.
# experimentalTarget: A2a receptors (Rattus norvegicus)
# Construct: Displacement of specific [^3 H]; from tissue; host or cells: rat striatal membranes
# assayComment: radioligand binding, displacement of specific [3H]CGS 21680 binding in rat striatal membranes
# condition: Table 5; [3H]CGS 21680, rat striatal membranes; read-out: Ki rA2a
pKi: −log10 of the molar value.
outcomeMeasure: pKi

>>> recordedmeasurement("CCOc1c2ccoc2cc2oc(/C=C/c3ccccc3)cc(=O)c12 [Compound 20, 4-ethyloxy-7-trans-styryl-visnagin]")
4.47
>>> recordedmeasurement("COc1c2ccoc2cc2oc(/C=C/c3ccccc3)cc(=O)c12 [Compound 19, 4-methyloxy-7-trans-styryl-visnagin]")
4.94
>>> recordedmeasurement("CCOc1c2ccoc2cc2oc(/C=C/C=Cc3ccccc3)cc(=O)c12")
3.78
>>> recordedmeasurement("COc1c2ccoc2cc2oc(C)cc(=O)c12 [Compound 17, reference compound]")
4.37

###

Attribute: pKi
# experimentalTarget: A1 receptors (Rattus norvegicus)
# Sequence (P25099 whole entry): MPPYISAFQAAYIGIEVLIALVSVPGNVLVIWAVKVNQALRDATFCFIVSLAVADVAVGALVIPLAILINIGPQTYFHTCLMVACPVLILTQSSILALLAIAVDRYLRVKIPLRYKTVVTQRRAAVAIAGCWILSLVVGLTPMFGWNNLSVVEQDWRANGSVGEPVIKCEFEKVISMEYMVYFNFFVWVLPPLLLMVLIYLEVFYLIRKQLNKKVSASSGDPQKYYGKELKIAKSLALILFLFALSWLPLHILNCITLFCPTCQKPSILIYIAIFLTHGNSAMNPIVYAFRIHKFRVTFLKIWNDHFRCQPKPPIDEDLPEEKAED
# assayComment: biochemical
# Assay type: binding
# condition: Table 3; [3H]PIA, rat brain membranes; read-out: Ki rA1
pKi: −log10 of the molar value.
outcomeMeasure: pKi

>>> recordedmeasurement("O=c1c(O)c(-c2ccc(O)cc2O)oc2cc(O)cc(O)c12 [Compound 5a, 2',3,4',5,7-pentahydroxyflavone, reference compound]")
4.86
>>> recordedmeasurement("COc1cc(OC)c2c(=O)c(OC)c(-c3ccccc3)oc2c1")
6.29
>>> recordedmeasurement("CCCOc1cc(OCCC)c2c(=O)c(OCCC)c(-c3ccccc3)oc2c1")
5.96
>>> recordedmeasurement("O=c1c(O)c(-c2ccccc2)oc2cc(O)cc(O)c12 [Compound 1, galangin, reference compound]")
6.06
>>> recordedmeasurement("CCOc1cc(OCC)c2c(=O)c(OCC)c(-c3ccccc3)oc2c1")
6.22
>>> recordedmeasurement("COc1cc(OC)c(-c2oc3ccccc3c(=O)c2O)c(OC)c1 [Compound 9, reference compound]")
5.14
>>> recordedmeasurement("O=c1cc(-c2ccccc2)oc2ccccc12 [Compound 11a, flavone, reference compound]")
5.48
